protocol_notes: Selectivity index, ratio of ED50 for human KB cells to IC50 for Plasmodium falciparum D6
Type: functional
Selectivity Index values by entry
assay_readout: Selectivity Index

{"columns": ["compound_structure_string", "result_comparator", "reported_result"],
 "data": [
  ["COC1=CC(=O)C=C(OC)C1(O)CC(C)=O", "=", 4],
  ["COc1cc([C@@H]2Oc3cc(/C=C/CO)cc(OC)c3O[C@H]2CO)cc(OC)c1O", ">", 4.6],
  ["CC(C)(O)[C@@H]1CC[C@]2(C)CC[C@]3(C)[C@H](CC[C@@H]4[C@@]5(C)CC[C@@H](O)C(C)(C)[C@@H]5CC[C@]43C)[C@@H]12", ">", 4.5],
  ["COc1cc([C@@H]2Oc3cc4ccc(=O)oc4cc3O[C@H]2CO)cc(O)c1O", ">", 9.6],
  ["CC1(C)CC[C@]2(C(=O)O)CC[C@]3(C)C(=CC[C@@H]4[C@@]5(C)C[C@@H](O)[C@H](O)C(C)(C)[C@@H]5CC[C@]43C)[C@@H]2C1", "=", 2.4]
]}

---

# CC50 values compiled below
protocol_notes: Cytotoxicity against human KB cells by SRB assay
Format: cell-based
conditions_used: read-out: ED50 (the source's name)
assay_readout: CC50 (µM)

{"columns": ["compound", "assay_readout", "units_text", "result_comparator", "reported_result"],
 "data": [
  ["CC1(C)CC[C@]2(C(=O)O)CC[C@]3(C)C(=CC[C@@H]4[C@@]5(C)C[C@@H](O)[C@H](O)C(C)(C)[C@@H]5CC[C@]43C)[C@@H]2C1", "CC50", "µM", "=", 51.5],
  ["COC1=CC(=O)C=C(OC)C1(O)CC(C)=O", "CC50", "µM", "=", 169],
  ["CC(C)(O)[C@@H]1CC[C@]2(C)CC[C@]3(C)[C@H](CC[C@@H]4[C@@]5(C)CC[C@@H](O)C(C)(C)[C@@H]5CC[C@]43C)[C@@H]12", "CC50", "µM", ">", 90],
  ["COc1cc([C@@H]2Oc3cc(/C=C/CO)cc(OC)c3O[C@H]2CO)cc(OC)c1O", "CC50", "µM", ">", 99],
  ["COc1cc([C@@H]2Oc3cc4ccc(=O)oc4cc3O[C@H]2CO)cc(O)c1O", "CC50", "µM", ">", 108],
  ["CCN(CC)CCCC(C)Nc1ccnc2cc(Cl)ccc12 (stereo unspecified)", "CC50", "µM", "=", 30.8]
]}
